# testSummary: total protein half-life in vivo (active degradation + dilution); higher = more stable protein
# experimentalParameters: wild type E. coli NCM3722; growth: N-lim chemostat; doubling time 12 h
Quick rule: total protein half-life in vivo of at least 7 h means Y, below that means N.

q: Decide: total protein half-life in vivo of MNKSQLIDKIAAGADISKAAAGRALDAIIASVTESLKEGDDVALVGFGTFAVKERAARTGRNPQTGKEITIAAAKVPSFRAGKALKDAVN [P0ACF4] >= 7 h?
a: Y

q: Now consider MVKSQPILRYILRGIPAIAVAVLLSACSANNTAKNMHPETRAVGSETSSLQASQDEFENLVRNVDVKSRIMDQYADWKGVRYRLGGSTKKGIDCSGFVQRTFREQFGLELPRSTYEQQEMGKSVSRSNLRTGDLVLFRAGSTGRHVGIYIGNNQFVHASTSSGVIISSMNEPYWKKRYNEARRVLSRS [P0AFV4] and answer again.
a: N

q: Also MLELNFSQTLGNHCLTINETLPANGITAIFGVSGAGKTSLINAISGLTRPQKGRIVLNGRVLNDAEKGICLTPEKRRVGYVFQDARLFPHYKVRGNLRYGMSKSMVDQFDKLVALLGIEPLLDRLPGSLSGGEKQRVAIGRALLTAPELLLLDEPLASLDIPRKRELLPYLQRLTREINIPMLYVSHSLDEILHLADRVMVLENGQVKAFGALEEVWGSSVMNPWLPKEQQSSILKVTVLEHHPHYAMTALALGDQHLWVNKLDEPLQAALRIRIQASDVSLVLQPPQQTSIRNVLRAKVVNSYDDNGQVEVELEVGGKTLWARISPWARDELAIKPGLWLYAQIKSVSITA ?
a: Y

q: Do the same for MDIFISKKMRNFILLAQTNNIARAAEKIHMTASPFGKSIAALEEQIGYTLFTRKDNNISLNKAGQELYQKLFPVYQRLSAIDNEIHNSGRRSREIVIGIDNTYPTIIFDQLISLGDKYEGVTAQPVEFSENGVIDNLFDRQLDFIISPQHVSARVQELENLTISELPPLRLGFLVSRRYEERQEQELLQELPWLQMRFQNRANFEAMIDANMRPCGINPTIIYRPYSFMAKISAVERGHFLTVIPHFAWRLVNPATLKYFDAPHRPMYMQEYLYSIRNHRYTATMLQHIAEDRDGTSH please
a: Y

q: Also, MTHDNKLQVEAIKRGTVIDHIPAQIGFKLLSLFKLTETDQRITIGLNLPSGEMGRKDLIKIENTFLSEDQVDQLALYAPQATVNRIDNYEVVGKSRPSLPERIDNVLVCPNSNCISHAEPVSSSFAVRKRANDIALKCKYCEKEFSHNVVLAN [P0A7F3] please.
a: Y

q: Now try MKKIAITCALLSSLVASSVWADAASDLKSRLDKVSSFHASFTQKVTDGSGAAVQEGQGDLWVKRPNLFNWHMTQPDESILVSDGKTLWFYNPFVEQATATWLKDATGNTPFMLIARNQSSDWQQYNIKQNGDDFVLTPKASNGNLKQFTINVGRDGTIHQFSAVEQDDQRSSYQLKSQQNGAVDAAKFTFTPPQGVTVDDQRK .
a: Y

q: Next record, please: MPAENIVEVHHLKKSVGQGEHELSILTGVELVVKRGETIALVGESGSGKSTLLAILAGLDDGSSGEVSLVGQPLHNMDEEARAKLRAKHVGFVFQSFMLIPTLNALENVELPALLRGESSAESRNGAKALLEQLGLGKRLDHLPAQLSGGEQQRVALARAFNGRPDVLFADEPTGNLDRQTGDKIADLLFSLNREHGTTLIMVTHDLQLAARCDRCLRLVNGQLQEEA [P0A9T8]
a: Y

q: Next entry: MSDNAQLTGLCDRFRGFYPVVIDVETAGFNAKTDALLEIAAITLKMDEQGWLMPDTTLHFHVEPFVGANLQPEALAFNGIDPNDPDRGAVSEYEALHEIFKVVRKGIKASGCNRAIMVAHNANFDHSFMMAAAERASLKRNPFHPFATFDTAALAGLALGQTVLSKACQTAGMDFDSTQAHSALYDTERTAVLFCEIVNRWKRLGGWPLSAAEEV
a: Y

q: Please do the same for MYRIVLGKVSTLSAAPLPPGLREQAPQGPRRERWLAGRALLSHTLSPLPEIIYGEQGKPAFAPEMPLWFNLSHSGDDIALLLSDEGEVGCDIEVIRPRANWRWLANAVFSLGEHAEMDAVHPDQQLEMFWRIWTRKEAIVKQRGGSAWQIVSVDSTYHSSLSVSHCQLENLSLAICTPTPFTLTADSVQWIDSVN as well.
a: N

q: Repeat for the following sequence: MIRSMTAYARREIKGEWGSATWEMRSVNQRYLETYFRLPEQFRSLEPVVRERIRSRLTRGKVECTLRYEPDVSAQGELILNEKLAKQLVTAANWVKMQSDEGEINPVDILRWPGVMAAQEQDLDAIAAEILAALDGTLDDFIVARETEGQALKALIEQRLEGVTAEVVKVRSHMPEILQWQRERLVAKLEDAQVQLENNRLEQELVLLAQRIDVAEELDRLEAHVKETYNILKKKEAVGRRLDFMMQEFNRESNTLASKSINAEVTNSAIELKVLIEQMREQIQNIE
a: N

q: Same for MEALGMIETRGLVALIEASDAMVKAARVKLVGVKQIGGGLCTAMVRGDVAACKAATDAGAAAAQRIGELVSVHVIPRPHGDLEEVFPIGLKGDSSNL [P0ABF4]
a: Y

q: // same read-out, input: MSIKTIKYFSTIIVAVVAVLAGWWLWNYYMQSPWTRDGKIRAEQVSITPQVSGRIVELNIKDNQLVNAGDLLLTIDKTPFQIAELNAQAQLAKAQSDLAKANNEANRRRHLSQNFISAEELDTANLNVKAMQASVDAAQATLKQAQWQLAQTEIRAPVSGWVTNLTTRIGDYADTGKPLFALVDSHSFYVIGYFEETKLRHIREGAPAQITLYSDNKTLQGHVSSIGRAIYDQSVESDSSLIPDVKPNVPWVRLAQRVPVRFALDKVPGDVTLVSGTTCSIAVGQ
a: Y
